assay_explanation: Toxicity in Vero 76 cells, primary screen (Zika-089)
conditions: monkey, Vero 76 cells, CC50, Neutral Red (Toxicity)
quantity_measured: CC50

{"compound": "O=c1cnn([C@@H]2O[C@H](CO)[C@@H](O)[C@H]2O)c(=O)[nH]1 [6-Azauridine]", "readout_value": "83.3 µg/mL"}

---

Test system: human norovirus (NV, GT1)
assay_explanation: Human norovirus replicon, RNA Hybridization, HG23, primary (16-21)
Format: cell-based
conditions: RNA Hybridization (Replicon); NV GT1; HG23; read-out: EC50
quantity_measured: EC50 (µM)

{"compound": "C[C@@]1(O)[C@H](O)[C@@H](CO)O[C@H]1n1ccc(N)nc1=O [2′C-methyl cytidine]", "system": "human norovirus (NV, GT1)", "readout_value": 6.6}
